# IC50 annotations
tested.target: human MC5R (hMC5R) (Homo sapiens, UniProt P33032)
Construct: purchased Perkin Elmer RBXMC5M400UA
Sequence (P33032 whole entry): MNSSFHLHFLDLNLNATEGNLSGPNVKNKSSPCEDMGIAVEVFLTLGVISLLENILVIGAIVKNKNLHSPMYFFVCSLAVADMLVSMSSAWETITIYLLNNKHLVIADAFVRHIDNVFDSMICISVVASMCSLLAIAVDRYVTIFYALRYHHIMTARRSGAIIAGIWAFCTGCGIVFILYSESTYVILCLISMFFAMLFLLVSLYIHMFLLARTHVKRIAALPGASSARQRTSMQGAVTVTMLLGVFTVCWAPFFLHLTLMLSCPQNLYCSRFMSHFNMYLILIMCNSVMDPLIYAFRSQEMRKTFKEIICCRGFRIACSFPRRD
protocol.summary: Human MC5R radioligand binding assay (membranes, [125I] NDP-MSH displacement)
condition.context: hMC5R binding; tested as trifluoroacetate or hydrochloride salts, or free bases; read-out: MC5R radioligand IC50

- compound: "N=C(N)NCCC[C@@H]1N[C@H](CNC(=O)c2ccc3ccccc3c2)CCN(CCc2ccc3ccccc3c2)C1=O [Compound 264]"
  tested.target: "human MC5R (hMC5R) (Homo sapiens, UniProt P33032)"
  IC50: "< 10 µM"
- compound: "O=C(/C=C/c1ccc(Cl)cc1)NC[C@@H]1CCN(CC(c2ccccc2)c2ccccc2)C(=O)[C@H](CCN2CCCC2)N1 [Compound 380]"
  tested.target: "human MC5R (hMC5R) (Homo sapiens, UniProt P33032)"
  IC50: "< 0.1 µM"
- compound: "O=C(/C=C/c1ccc(Cl)cc1)NC[C@@H]1CCN(CC(c2ccccc2)c2ccccc2)C(=O)[C@H](CNC(=O)c2ccccn2)N1 [Compound 393]"
  tested.target: "human MC5R (hMC5R) (Homo sapiens, UniProt P33032)"
  IC50: "< 10 µM"
- compound: "COC(CN1CC[C@@H](CNC(=O)c2ccc3ccccc3c2)N[C@@H](CCCNC(=N)N)C1=O)c1ccccc1 (some centres unmarked) [Compound 289]"
  tested.target: "human MC5R (hMC5R) (Homo sapiens, UniProt P33032)"
  IC50: "< 1 µM"
- compound: "CC(C)(NC(=O)/C=C/c1ccc(Cl)cc1)[C@@H]1CCN(CC(c2ccccc2)c2ccccc2)C(=O)[C@H](CCN)N1 [Compound 419]"
  tested.target: "human MC5R (hMC5R) (Homo sapiens, UniProt P33032)"
  IC50: "< 1 µM"
- compound: "CC[C@H](CN1CC[C@@H](CNC(=O)c2ccc3cc(OC)ccc3c2)N[C@@H](CCN2CCCCC2)C1=O)c1ccccc1 [Compound 537]"
  tested.target: "human MC5R (hMC5R) (Homo sapiens, UniProt P33032)"
  IC50: "< 0.1 µM"
- compound: "CCCCCN(C)CC[C@@H]1N[C@H](CNC(=O)c2ccc(Cl)c(Cl)c2)CCN(C[C@@H](CC)c2ccccc2)C1=O [Compound 444]"
  tested.target: "human MC5R (hMC5R) (Homo sapiens, UniProt P33032)"
  IC50: "< 0.1 µM"
- compound: "CCC(C)(CC)CN1CC[C@@H](CNC(=O)c2ccc3cc(Cl)ccc3c2)N[C@@H](CCN)C1=O [Compound 512]"
  tested.target: "human MC5R (hMC5R) (Homo sapiens, UniProt P33032)"
  IC50: "< 1 µM"
- compound: "N=C(N)NCCC[C@@H]1N[C@H](CNC(=O)c2ccc3ccccc3c2)CCN(CCC2CC3CCC2C3)C1=O (some centres unmarked) [Compound 243]"
  tested.target: "human MC5R (hMC5R) (Homo sapiens, UniProt P33032)"
  IC50: "< 1 µM"
- compound: "CCCOC(=O)N[C@@H](Cc1ccc2ccccc2c1)[C@@H]1CCN(CC(c2ccccc2)c2ccccc2)C(=O)[C@H](CCCNC(=N)N)N1 [Compound 83]"
  tested.target: "human MC5R (hMC5R) (Homo sapiens, UniProt P33032)"
  IC50: "< 1 µM"
- compound: "CC(C)NCC[C@@H]1N[C@H](CNC(=O)c2ccc3ccccc3c2)CCN(CC(c2ccccc2)c2ccccc2)C1=O [Compound 382]"
  tested.target: "human MC5R (hMC5R) (Homo sapiens, UniProt P33032)"
  IC50: "< 1 µM"
- compound: "CCC(C)(CC)CN1CC[C@@H](CNC(=O)c2ccc(Cl)c(Cl)c2)N[C@@H](CCN)C1=O [Compound 520]"
  tested.target: "human MC5R (hMC5R) (Homo sapiens, UniProt P33032)"
  IC50: "< 10 µM"
- compound: "CC[C@H](CN1CC[C@@H](CNC(=O)c2ccc(Cl)c(Cl)c2)N[C@@H](CCN2CCC(O)CC2)C1=O)c1ccccc1 [Compound 450]"
  tested.target: "human MC5R (hMC5R) (Homo sapiens, UniProt P33032)"
  IC50: "< 0.1 µM"
- compound: "O=C(NC[C@@H]1CCN(Cc2cc(Cl)cc(Cl)c2)C(=O)[C@H](CCN2CCCCC2)N1)c1ccc(Cl)cc1Cl [Compound 528]"
  tested.target: "human MC5R (hMC5R) (Homo sapiens, UniProt P33032)"
  IC50: "< 0.01 µM"
- compound: "CC[C@H](CN1CC[C@@H](CNC(=O)c2ccc3cc(Cl)ccc3c2)N[C@@H](CCNC(=N)NC(C)C)C1=O)c1ccccc1 [Compound 474]"
  tested.target: "human MC5R (hMC5R) (Homo sapiens, UniProt P33032)"
  IC50: "< 0.01 µM"
- compound: "O=C(/C=C/c1ccc(Cl)cc1)NC[C@@H]1CCN(CC(c2ccccc2)c2ccccc2)C(=O)[C@H](CCCN2CCCC2)N1 [Compound 258]"
  tested.target: "human MC5R (hMC5R) (Homo sapiens, UniProt P33032)"
  IC50: "< 0.1 µM"
- compound: "CC[C@H](CN1CC[C@@H](CNC(=O)c2ccc(Cl)c(Cl)c2)N[C@@H](CCNC(C)(C)C)C1=O)c1ccccc1 [Compound 430]"
  tested.target: "human MC5R (hMC5R) (Homo sapiens, UniProt P33032)"
  IC50: "< 0.1 µM"
- compound: "Cc1ccc(/C=C/C(=O)NC[C@@H]2CCN(CC(c3ccccc3)c3ccccc3)C(=O)[C@H](CCCNC(=O)C3CCCCC3)N2)cc1 [Compound 294]"
  tested.target: "human MC5R (hMC5R) (Homo sapiens, UniProt P33032)"
  IC50: "< 1 µM"
- compound: "CC[C@H](CN1CC[C@@H](CNC(=O)c2ccc(Cl)c(Cl)c2)N[C@@H](CCN)C1=O)c1ccccc1 [Compound 464]"
  tested.target: "human MC5R (hMC5R) (Homo sapiens, UniProt P33032)"
  IC50: "< 1 µM"
- compound: "CC[C@H](CN1CC[C@@H](CNC(=O)c2ccc3cc(Cl)ccc3c2)N[C@@H](CCCNC(N)=O)C1=O)c1ccccc1 [Compound 490]"
  tested.target: "human MC5R (hMC5R) (Homo sapiens, UniProt P33032)"
  IC50: "< 1 µM"
- compound: "Cc1ccc(/C=C/C(=O)NC[C@@H]2CCN(CC(c3ccccc3)c3ccccc3)C(=O)[C@H](CCN)N2)c(C)c1 [Compound 399]"
  tested.target: "human MC5R (hMC5R) (Homo sapiens, UniProt P33032)"
  IC50: "< 1 µM"
- compound: "O=C(C=Cc1ccccc1)NC[C@@H]1CCN(CC(c2ccccc2)c2ccccc2)C(=O)[C@H](CCCN2CCCCC2)N1 [Compound 266]"
  tested.target: "human MC5R (hMC5R) (Homo sapiens, UniProt P33032)"
  IC50: "< 0.1 µM"
- compound: "N=C(N)NCCC[C@@H]1N[C@H](CNC(=O)c2ccc3ccccc3c2)CCN(Cc2cc(F)cc(F)c2)C1=O [Compound 311]"
  tested.target: "human MC5R (hMC5R) (Homo sapiens, UniProt P33032)"
  IC50: "< 1 µM"
- compound: "C[C@@H](CN1CC[C@@H](CNC(=O)c2ccc3ccccc3c2)N[C@@H](CCN)C1=O)c1ccc(Cl)cc1 [Compound 421]"
  tested.target: "human MC5R (hMC5R) (Homo sapiens, UniProt P33032)"
  IC50: "< 10 µM"
- compound: "CC[C@H](CN1CC[C@@H](CNC(=O)c2ccc(Cl)c(Cl)c2)N[C@@H](CCN2CCCC2)C1=O)c1ccccc1 [Compound 411]"
  tested.target: "human MC5R (hMC5R) (Homo sapiens, UniProt P33032)"
  IC50: "< 0.1 µM"
- compound: "CC[C@H](CN1CC[C@@H](CNC(=O)c2ccc(Cl)c(Cl)c2)N[C@@H](CCN(C)c2ccccc2)C1=O)c1ccccc1 [Compound 425]"
  tested.target: "human MC5R (hMC5R) (Homo sapiens, UniProt P33032)"
  IC50: "< 1 µM"
